# inhibition per entry
# target_system: Hexose transporter 1 (Plasmodium falciparum)
# procedure_details: ST_JUDE_LEISH: Cytotoxicity at 2uM final concentration against transgenic Leishmania Mexicana promastigotes LmPfHT that are glucose transport deficient and complemented with the Plasmodium falciparum hexose transporter. Activity is measured by DNA content using SYBR green in vitro
# Type: functional
Response body: numeric value in %, unit text excluded.

>>> assay_result("c1cc(CN2CCCCC2)cc(-c2cccc(-c3nc4ccccc4[nH]3)c2)c1")
2.94

What the record says about `Nc1nc(N)c2c(Oc3cccc4ccccc34)cccc2n1` : inhibition is 2.3

For record `O=C(Nc1ccc(Cl)cc1)Nc1ccc(-c2cccc(-c3nc4ccccc4[nH]3)c2)cc1` the listed inhibition is 2.71

Entry under test: `COc1ccc(-c2cnc(NCc3ccccc3)nc2)cc1CNC1CCN(C)CC1` . Its inhibition was 1.06

Lookup result for `Cc1cc(NCCC(=O)NCCOc2ccccc2)nc(NCc2ccccc2C)n1` ; measured inhibition: 0.58

Measured inhibition of O=C(NCC1CCC(C(=O)NCCN2CCCCC2)CC1)c1ccc(O)c(-c2ccc(Cl)c(Cl)c2)c1 (stereo unspecified) : 0.49

Lab note: measured inhibition of `CSc1nc2cc3c(cc2n1C(=O)c1ccc(C)cc1)OCCO3` was 4.48

Reported inhibition for `CC(C)(CNC(=O)C1CCN(CCOCc2ccccc2)CC1)c1nc(-c2ccc(Cl)c(O)c2)c(-c2ccncc2)[nH]1` was 0.65

The recorded inhibition for entry CC(CC1CCCCC1)NCc1ccccc1OCCC(=O)N1CCCC1C(N)=O (stereo unspecified) equals 3.8

Notebook: `C=CCn1ccc2c3c(N)nc(N)nc3ccc21` , inhibition read as 79.6

Entry `Cc1ccc(O)c(C(=O)c2cc(C(=O)Nc3ccccc3C)c(=O)n(-c3ccccc3C)c2)c1` , inhibition reported as 3.71

Kindly note the recorded inhibition for `CCCCc1ccc(-c2ccc(-c3c(C)[nH]c(C)c(Br)c3=O)cn2)cc1` , which is 3.53

Note to self: inhibition recorded for `CN1CCN(CC(=O)Nc2cccc(-c3cccc(-c4nc5cc(F)ccc5[nH]4)c3)c2)CC1` was 1.22

Field inhibition (entry `CCC(N)(C#Cc1ccc(-c2c(C)[nH]c(C)c(Br)c2=O)cc1)CC` ) reads 2.05

Input `CC(=NNC(S)=NC(C)(C)C)c1ccccn1` . Output inhibition: 69.5

# compound `CC(=O)Nc1nc(C(=O)Nc2ccc(-c3ccc(-c4nc5ccccc5[nH]4)cc3)cc2)cs1` ; its inhibition = 2.54

// `CCCc1ccc(C2CCN(CCCCNC(=O)c3ccc(NC(=O)c4ccc(Cl)cc4)cc3)CC2)cc1` : inhibition value = -1

Reported inhibition of `Cc1nc(N)nc(N)c1OCCCOc1ccccc1Br` : 61.8

// sample Cc1cccn2c(=O)c3cc(C(=O)NC(C)c4ccccc4)c(=N)n(CCN4CCOCC4)c3nc12 (stereo unspecified) , its inhibition was 1.65

Reported inhibition for `Nc1nccc2ccc(-c3ccc(OCc4ccccc4)cc3)cc12` was 2.36

# inhibition (compound: `CCOc1ccc2[nH]c(-c3ccccc3)cc(=NN=Cc3ccncc3)c2c1` ) is 4.54
